- Test system: MDA-MB-231
- experimentNotes: Antiproliferative activity against human MDA-MB-231 cells after 48 hrs
- Assay type: functional, cell-based
- assaySetup: MDA-MB-231, 48 h
# IC50 listing for each entry below
Write down the numeric answer in µM and omit the unit.

Worked cases, IC50 given:
{"compound": "COc1cc2c(cc1O)CC[C@@H]1[C@@H]2CC[C@]2(C)[C@@H](O)[C@H](CN(C)C)C[C@@H]12", "assayedTarget": "MDA-MB-231", "IC50, µM": 22.7}
{"compound": "COc1cc2c(cc1O)CC[C@@H]1[C@@H]2CC[C@]2(C)[C@@H](O)CC[C@@H]12 [2-METHOXYESTRADIOL]", "assayedTarget": "MDA-MB-231", "IC50, µM": 1}
{"compound": "COc1cc2c(cc1O)CC[C@@H]1[C@@H]2CC[C@]2(C)[C@@H](O)[C@H](CC(C)C)C[C@@H]12", "assayedTarget": "MDA-MB-231", "IC50, µM": 38.3}
{"compound": "CCCC[C@@H]1C[C@H]2[C@@H]3CCc4cc(O)c(OC)cc4[C@H]3CC[C@]2(C)[C@H]1O", "assayedTarget": "MDA-MB-231", "IC50, µM": 27.9}

Lookup: What value of measured IC50 is listed for CCC[C@@H]1C[C@H]2[C@@H]3CCc4cc(O)c(OC)cc4[C@H]3CC[C@]2(C)[C@H]1O ?
Found: 35.1

Lookup: // lookup IC50 for CC[C@@H]1C[C@H]2[C@@H]3CCc4cc(O)c(OC)cc4[C@H]3CC[C@]2(C)[C@H]1O
Found: 3.59

Lookup: // query IC50 value for entry CCC[C@H]1C[C@H]2[C@@H]3CCc4cc(O)c(OC)cc4[C@H]3CC[C@]2(C)[C@H]1O
Found: 45.1

Lookup: Looking for the measured IC50 of COc1cc2c(cc1O)CC[C@@H]1[C@@H]2CC[C@]2(C)[C@@H](O)[C@H](C)C[C@@H]12 , can you help?
Found: 0.74

Lookup: Any idea what IC50 was measured for COc1cc2c(cc1O)CC[C@@H]1[C@@H]2CC[C@]2(C)[C@@H](O)[C@@H](CO)C[C@@H]12 ?
Found: 6.09

Lookup: IC50 for COc1cc2c(cc1O)CC[C@@H]1[C@@H]2CC[C@]2(C)[C@@H](O)[C@H](CO)C[C@@H]12 ?
Found: 4.26

Lookup: What value of measured IC50 is listed for COc1cc2c(cc1O)CC[C@@H]1[C@@H]2CC[C@]2(C)[C@@H](O)[C@@H](C)C[C@@H]12 ?
Found: 2.4

Lookup: What does the data say about its IC50? Entry: CCCC[C@H]1C[C@H]2[C@@H]3CCc4cc(O)c(OC)cc4[C@H]3CC[C@]2(C)[C@H]1O
Found: 37.9

Each recorded value in this set is attributed to ChEMBL document CHEMBL1137562.
